Target: T1, BMPRII receptor-Fc fusion (UniProt Q13873 27-151, limits assumed)
T1 construct: BMP receptor-Fc fusion used at 5 ug/mL
T1 sequence (looked up): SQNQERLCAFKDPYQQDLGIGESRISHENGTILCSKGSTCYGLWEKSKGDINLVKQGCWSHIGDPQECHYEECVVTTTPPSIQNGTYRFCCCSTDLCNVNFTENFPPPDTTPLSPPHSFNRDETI
Assay: ELISA-like plate assay, captured BMP-7 from conditioned media, receptor-Fc detection
Collected BMPRII binding (relative to wild type = 1.0) values appear next to each entry.
endpoint: BMPRII binding (relative to wild type = 1.0)

binder	reportedMeasurement
BMP-7 variant W55N (ligand, In conditioned media; numbering on mature BMP-7) STGGKQRSQNRSKTPKNQEALRMASVAENSSSDQRQACKKHELYVSFRDLGWQDNIIAPEGYAAYYCEGECAFPLNSYMNATNHAIVQTLVHFINPETVPKPCCAPTQLNAISVLYFDDSSNVILKKYRNMVVRACGCH	0.82 relative to wild type
BMP-7 variant M23S (ligand, In conditioned media; numbering on mature BMP-7) STGGKQRSQNRSKTPKNQEALRSASVAENSSSDQRQACKKHELYVSFRDLGWQDWIIAPEGYAAYYCEGECAFPLNSYMNATNHAIVQTLVHFINPETVPKPCCAPTQLNAISVLYFDDSSNVILKKYRNMVVRACGCH	2.41 relative to wild type
BMP-7 variant F73S (ligand, In conditioned media; numbering on mature BMP-7) STGGKQRSQNRSKTPKNQEALRMASVAENSSSDQRQACKKHELYVSFRDLGWQDWIIAPEGYAAYYCEGECASPLNSYMNATNHAIVQTLVHFINPETVPKPCCAPTQLNAISVLYFDDSSNVILKKYRNMVVRACGCH	2.84 relative to wild type
BMP-7 variant F73E (ligand, In conditioned media; numbering on mature BMP-7) STGGKQRSQNRSKTPKNQEALRMASVAENSSSDQRQACKKHELYVSFRDLGWQDWIIAPEGYAAYYCEGECAEPLNSYMNATNHAIVQTLVHFINPETVPKPCCAPTQLNAISVLYFDDSSNVILKKYRNMVVRACGCH	1.77 relative to wild type
